Read-out: Apoptosis regulator Bcl-2 (Homo sapiens) (UniProt P10415)
Sequence (P10415 whole entry, looked up): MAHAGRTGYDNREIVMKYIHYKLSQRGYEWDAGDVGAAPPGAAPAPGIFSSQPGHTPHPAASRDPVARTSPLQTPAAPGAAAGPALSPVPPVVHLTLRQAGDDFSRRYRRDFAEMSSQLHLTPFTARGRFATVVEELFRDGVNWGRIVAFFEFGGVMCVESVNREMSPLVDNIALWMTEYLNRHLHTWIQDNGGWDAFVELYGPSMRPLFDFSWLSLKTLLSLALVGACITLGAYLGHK
Procedure summary: LTEA_HepaRG_BCL2: Life Technologies and Expression Analysis (LTEA) Assay for Bcl-2 gene using HepaRG (AID 2283475);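 also: BCL2 transcript by TaqMan qRT-PCR normalised to ACTB GAPDH and POLR2A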
Condition set: mRNA level, 48 h; actives raise or lower the signal
Calls of active or inactive are those of the source. The calls were made as follows: active = hit-call score of the fitted dose curve at least 0.9, where 1 is the maximum; inactive = score below 0.9.
I would appreciate it if you answered using one of these outcomes: true (active), false (inactive)

Consider the worked cases shown below.
{"Molecule": "COC(=O)CSc1cc(N=c2sc(=O)n3n2CCCC3)c(F)cc1Cl", "Class assignment": "false"}
{"Molecule": "CCCCCCC(C)OC(=O)COc1nc(F)c(Cl)c(N)c1Cl (configuration not stated)", "Class assignment": "false"}

Write down the call the test reported for this molecule. Item: COCCO
false

Tell me the assay call for CC(C)(c1ccc(O)cc1)c1ccc(O)cc1 please.
false

Hi, do you know how CC(=O)S[C@@H]1CC2=CC(=O)CC[C@]2(C)[C@H]2CC[C@@]3(C)[C@@H](CC[C@@]34CCC(=O)O4)[C@H]12 came out in this test?
false

Outcome? Cc1nn(C)c(Oc2ccccc2)c1C=NOCc1ccc(C(=O)OC(C)(C)C)cc1
true

Dear all, I need the recorded test outcome for O=C(O)C1(C(=O)Nc2ccc(Cl)cc2Cl)CC1 , thank you.
false
